Assay: Volume of distribution at steady state in C57BL/6 mouse at 2 mg/kg, iv by LC-MS/MS analysis
Format: ADME, organism-based
Details: in vivo, read-out: Vdss
TEST_READOUT: Vd (L/kg)

>>> print(df.to_string())
                               entry_smiles  test_readout  unit_info  value_reported
0  CS(=O)(=O)c1ccc2nc(Cl)n(-c3ccc(Cl)c(NS(=O)(=O)c4c(F)cccc4F)c3)c(=O)c2c1            Vd       L/kg            1.33

====

Reported IC50 values are given for each entry in this list.
Target: Nucleotide-binding oligomerization domain-containing protein 1 (Mus musculus, UniProt Q8BHB0)
Sequence (Q8BHB0 whole entry, the tested form may be a part): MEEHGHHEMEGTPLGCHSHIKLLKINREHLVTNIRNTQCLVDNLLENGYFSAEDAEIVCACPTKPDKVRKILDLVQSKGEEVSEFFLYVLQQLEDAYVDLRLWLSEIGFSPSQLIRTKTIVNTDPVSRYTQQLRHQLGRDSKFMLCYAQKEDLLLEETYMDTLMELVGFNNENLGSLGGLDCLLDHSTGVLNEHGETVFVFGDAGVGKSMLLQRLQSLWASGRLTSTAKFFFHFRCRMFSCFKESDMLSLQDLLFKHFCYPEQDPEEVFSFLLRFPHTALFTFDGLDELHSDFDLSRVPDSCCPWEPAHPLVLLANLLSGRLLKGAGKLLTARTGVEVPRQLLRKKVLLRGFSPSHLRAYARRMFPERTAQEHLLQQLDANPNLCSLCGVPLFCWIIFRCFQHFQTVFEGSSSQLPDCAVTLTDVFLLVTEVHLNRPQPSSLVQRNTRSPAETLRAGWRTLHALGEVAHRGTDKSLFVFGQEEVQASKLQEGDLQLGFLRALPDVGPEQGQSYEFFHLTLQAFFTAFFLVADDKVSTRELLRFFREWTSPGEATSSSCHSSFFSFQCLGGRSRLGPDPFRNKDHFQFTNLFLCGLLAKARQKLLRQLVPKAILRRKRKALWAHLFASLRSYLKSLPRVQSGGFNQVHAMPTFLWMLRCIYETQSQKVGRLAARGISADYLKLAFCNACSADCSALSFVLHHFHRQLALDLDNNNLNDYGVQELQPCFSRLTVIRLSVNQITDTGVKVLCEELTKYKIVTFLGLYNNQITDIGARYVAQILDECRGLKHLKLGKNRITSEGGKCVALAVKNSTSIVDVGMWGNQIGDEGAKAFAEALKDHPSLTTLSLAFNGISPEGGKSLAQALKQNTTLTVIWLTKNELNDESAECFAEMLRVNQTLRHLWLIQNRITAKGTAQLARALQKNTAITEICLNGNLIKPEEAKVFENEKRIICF
Experiment: Antagonist activity at mouse NOD1 expressed in HEK-Blue cells assessed as decrease in SEAP secretion incubated for 3 hrs followed by C12-iE-DAP stimulation for 20 hrs by spectrophotometry
Type: cell-based, HEK-Blue mNOD1
TEST_READOUT: IC50 (nM)

>>> print(df.to_string())
                                entry_smiles  value_reported
 0  O=c1c2cc(F)c(F)cc2nc(Cl)n1-c1ccc(Cl)c(NS(=O)(=O)c2ccccc2F)c1            1300
 1  O=c1c2ccncc2nc(Cl)n1-c1ccc(Cl)c(NS(=O)(=O)c2ccc([N+](=O)[O-])cc2F)c1             133
 2  O=c1c2ccncc2nc(Cl)n1-c1ccc(Cl)c(NS(=O)(=O)c2c(F)cccc2F)c1              77
 3  O=c1c2cc(Cl)ncc2nc(Cl)n1-c1ccc(Cl)c(NS(=O)(=O)c2ccc3c(c2)CCO3)c1             673
 4  Cc1noc(C)c1S(=O)(=O)Nc1cc(-n2c(Cl)nc3cnc(Cl)cc3c2=O)ccc1Cl             559
 5  O=c1c2ccncc2nc(Cl)n1-c1ccc(Cl)c(NS(=O)(=O)c2cc(F)ccc2F)c1             165
 6  O=c1c2cc(Cl)ccc2nc(Cl)n1-c1ccc(Cl)c(NS(=O)(=O)c2ccccc2F)c1            2630
 7  CS(=O)(=O)c1ccc2nc(Cl)n(-c3ccc(Cl)c(NS(=O)(=O)c4c(F)cccc4F)c3)c(=O)c2c1              32
 8  O=c1c2cc(Cl)ccc2nc(C(F)(F)F)n1-c1ccc(Cl)c(NS(=O)(=O)c2ccccc2F)c1            5900
 9  O=c1c2cc([N+](=O)[O-])ccc2nc(Cl)n1-c1ccc(Cl)c(NS(=O)(=O)c2ccccc2F)c1             860
10  N#Cc1ccc2nc(Cl)n(-c3ccc(Cl)c(NS(=O)(=O)c4ccccc4F)c3)c(=O)c2c1             117
11  Cn1cc(S(=O)(=O)Nc2cc(-n3c(Cl)nc4cnc(Cl)cc4c3=O)ccc2Cl)cn1             267
12  O=c1c2cc(Cl)ncc2nc(Cl)n1-c1ccc(Cl)c(NS(=O)(=O)c2c(F)cccc2F)c1              67
13  O=c1c2nc(Cl)cnc2nc(Cl)n1-c1ccc(Cl)c(NS(=O)(=O)c2ccccc2F)c1            1230
14  O=c1c2cc(Cl)ncc2nc(Cl)n1-c1ccc(Cl)c(NS(=O)(=O)c2ccccc2Cl)c1             285
15  CS(=O)(=O)c1ccc2nc(Cl)n(-c3ccc(Cl)c(NS(=O)(=O)c4ccccc4F)c3)c(=O)c2c1             110
16  N#Cc1ccc2nc(Cl)n(-c3ccc(Cl)c(NS(=O)(=O)c4c(F)cccc4F)c3)c(=O)c2c1              54
17  CS(=O)(=O)c1ccc2nc(Cl)n(-c3ccc(Cl)c(NS(=O)(=O)c4ccccc4C#N)c3)c(=O)c2c1              66
18  O=c1c2ccncc2nc(Cl)n1-c1ccc(Cl)c(NS(=O)(=O)c2ccccc2F)c1             344
